- TARGET_DESC: PI3K alpha (Homo sapiens, UniProt P42336)
- Construct: p85(iSH2) fusion partner (see partner chain) (N); His tag (C); Tn5 (Trichoplusia ni) or TiniPro insect cells
- Sequence (P42336 with tags, fused parts or gaps limits assumed): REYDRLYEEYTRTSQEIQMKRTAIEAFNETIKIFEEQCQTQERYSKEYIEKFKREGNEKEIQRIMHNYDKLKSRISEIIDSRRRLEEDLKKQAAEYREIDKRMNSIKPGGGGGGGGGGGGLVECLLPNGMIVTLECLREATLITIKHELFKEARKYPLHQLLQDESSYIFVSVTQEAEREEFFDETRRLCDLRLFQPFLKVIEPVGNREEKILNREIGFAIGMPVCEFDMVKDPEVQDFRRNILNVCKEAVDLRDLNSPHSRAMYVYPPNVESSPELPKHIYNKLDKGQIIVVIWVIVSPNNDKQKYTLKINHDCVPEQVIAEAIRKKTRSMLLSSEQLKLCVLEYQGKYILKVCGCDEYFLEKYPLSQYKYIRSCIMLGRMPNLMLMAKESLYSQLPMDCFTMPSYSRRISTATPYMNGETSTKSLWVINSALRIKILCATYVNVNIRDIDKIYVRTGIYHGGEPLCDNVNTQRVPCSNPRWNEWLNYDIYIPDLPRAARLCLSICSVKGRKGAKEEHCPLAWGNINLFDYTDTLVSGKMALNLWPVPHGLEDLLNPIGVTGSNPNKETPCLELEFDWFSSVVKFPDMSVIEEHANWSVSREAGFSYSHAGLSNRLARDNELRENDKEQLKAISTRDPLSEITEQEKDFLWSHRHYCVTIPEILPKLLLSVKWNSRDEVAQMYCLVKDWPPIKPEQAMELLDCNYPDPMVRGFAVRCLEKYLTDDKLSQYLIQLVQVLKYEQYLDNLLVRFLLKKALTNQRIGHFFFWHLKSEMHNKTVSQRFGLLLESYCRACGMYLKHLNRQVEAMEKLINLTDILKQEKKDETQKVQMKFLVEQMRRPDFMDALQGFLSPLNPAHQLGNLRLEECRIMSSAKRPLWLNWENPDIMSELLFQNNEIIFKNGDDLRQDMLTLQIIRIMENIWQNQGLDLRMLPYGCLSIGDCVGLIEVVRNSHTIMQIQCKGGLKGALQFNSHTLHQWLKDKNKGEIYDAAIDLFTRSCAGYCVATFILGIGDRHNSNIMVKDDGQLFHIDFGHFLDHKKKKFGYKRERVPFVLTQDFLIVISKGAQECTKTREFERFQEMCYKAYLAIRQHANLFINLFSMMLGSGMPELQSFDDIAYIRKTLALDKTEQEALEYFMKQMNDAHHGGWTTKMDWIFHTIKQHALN
- ASSAY: PI3K alpha kinase assay (Kinase-Glo luminescence)
- Protocol: In a more preferred assay, the kinase reaction is performed in a final volume of 10 μL per well of a low volume non binding CORNING, 384 well black plate (Cat. No. #3676). The final concentrations of ATP and phosphatidyl inositol (PI) in the assay are 1 μM and 10 μg/mL respectively. […] IC50 is determined by a four parameter curve fitting routine that comes along with “excel fit”. […] Alternatively, IC50 values are calculated using idbsXLfit model 204, which is a 4 parameter logistic model.
Listed compounds paired with reported pIC50
Expect pIC50 as a plain number equal to -log10 of the molar concentration.

Some solved cases for reference:
pIC50 for "CCn1cc(-n2c(=O)n(C)c3cnc4ccc(-c5cncc(C(C)(C)C#N)c5)cc4c32)c(C)n1" is 8.00

So for "Cc1nn(C)cc1-n1c(=O)n(C)c2cnc3ccc(-c4cnc5c(c4)nc(C)n5C)cc3c21" , the logged pIC50 turned out to be 6.76

Note to self: pIC50 recorded for "COc1ccc(-c2ccc3ncc4c(c3c2)n(-c2cnn(C)c2C)c(=O)n4C)cn1" was 7.37

# compound "CCNc1cc(-c2ccc3ncc4c(c3c2)n(-c2cn(C)nc2C)c(=O)n4C)cnc1C" ; its pIC50 = 7.85

GET /value?item= "CNc1ccc(-c2ccc3ncc4c(c3c2)n(-c2cn(C)nc2Cl)c(=O)n4C)cn1" &field=pIC50 returns 8.05

What the record says about "Cc1cc(-n2c(=O)n(C)c3cnc4ccc(-c5cccnc5F)cc4c32)n(C)n1" : pIC50 is 6.61

Next:
Sample "CCOc1ccc(-c2ccc3ncc4c(c3c2)n(-c2cn(C)nc2C)c(=O)n4C)cn1" ; pIC50 observed: 7.68

// "Cc1nn(C)cc1-n1c(=O)n(C)c2cnc3ccc(-c4cccc(S(=O)(=O)N(C)C)c4)cc3c21" : pIC50 value = 7.80

###

- TARGET_DESC: PI3K delta (Homo sapiens)
- Construct: for the full-length p110-d subunit are generated and fused by overlapping PCR; p85(iSH2) fusion partner (see partner chain) (N); His tag (C); Tn5 (Trichoplusia ni) or TiniPro insect cells
- Sequence (O00329 with tags, fused parts or gaps limits assumed): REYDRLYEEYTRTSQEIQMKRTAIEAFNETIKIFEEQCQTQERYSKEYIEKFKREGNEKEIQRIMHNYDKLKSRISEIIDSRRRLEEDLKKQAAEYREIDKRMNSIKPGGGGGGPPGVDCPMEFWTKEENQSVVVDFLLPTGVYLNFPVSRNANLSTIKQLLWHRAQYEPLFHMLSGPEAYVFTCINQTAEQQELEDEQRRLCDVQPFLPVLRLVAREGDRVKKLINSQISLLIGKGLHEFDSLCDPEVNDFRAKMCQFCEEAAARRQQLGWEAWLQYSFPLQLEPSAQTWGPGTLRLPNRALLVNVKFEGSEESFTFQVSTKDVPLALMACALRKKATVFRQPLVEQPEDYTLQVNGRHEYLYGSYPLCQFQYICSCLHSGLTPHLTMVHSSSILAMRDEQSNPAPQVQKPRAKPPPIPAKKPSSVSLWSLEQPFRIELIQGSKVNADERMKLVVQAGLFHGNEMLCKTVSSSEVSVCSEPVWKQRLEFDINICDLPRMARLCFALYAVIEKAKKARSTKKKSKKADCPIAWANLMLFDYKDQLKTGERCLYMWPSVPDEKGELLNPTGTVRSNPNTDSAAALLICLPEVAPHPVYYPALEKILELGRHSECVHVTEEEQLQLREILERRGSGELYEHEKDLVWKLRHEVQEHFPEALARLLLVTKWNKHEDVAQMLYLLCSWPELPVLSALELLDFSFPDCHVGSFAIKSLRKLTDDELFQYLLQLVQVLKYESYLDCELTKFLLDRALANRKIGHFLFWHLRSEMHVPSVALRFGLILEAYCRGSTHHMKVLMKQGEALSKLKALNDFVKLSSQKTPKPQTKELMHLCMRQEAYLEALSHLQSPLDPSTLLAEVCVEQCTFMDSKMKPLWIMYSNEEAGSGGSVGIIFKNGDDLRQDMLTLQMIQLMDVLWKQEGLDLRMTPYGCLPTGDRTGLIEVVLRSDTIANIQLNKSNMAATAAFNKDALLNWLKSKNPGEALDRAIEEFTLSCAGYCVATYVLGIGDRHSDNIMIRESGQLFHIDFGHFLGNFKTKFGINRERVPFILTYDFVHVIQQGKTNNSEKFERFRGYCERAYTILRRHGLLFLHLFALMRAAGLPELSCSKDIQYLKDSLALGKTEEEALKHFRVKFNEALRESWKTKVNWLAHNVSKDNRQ
- ASSAY: PI3K delta kinase assay (Kinase-Glo luminescence)
# IC50 per entry

Solved entries (count: 6):
PI3K delta (Homo sapiens) assay, compound "Cc1nn(C)cc1-n1c(=O)n(C)c2cnc3ccc(-c4cnc(N(C)C)nc4)cc3c21" , recorded IC50 = 32 nM

Field IC50 (PI3K delta (Homo sapiens)), entry "COc1ncc(-c2ccc3ncc4c(c3c2)n(-c2cn(C)nc2Cl)c(=O)n4C)cc1N" : 9 nM

So the reported IC50 for "CCn1cc(-n2c(=O)n(C)c3cnc4ccc(-c5cnc(OC)nc5OC)cc4c32)c(C)n1" , on PI3K delta (Homo sapiens), turned out to be 9 nM

Measured IC50 for this entry "CCN(CC)c1cncc(-c2ccc3ncc4c(c3c2)n(-c2cn(C)nc2C)c(=O)n4C)c1" on PI3K delta (Homo sapiens): 24 nM

Lab note: compound "Cc1nn(C)cc1-n1c(=O)n(C)c2cnc3ccc(-c4cnc5c(c4)nc(N(C)C)n5C)cc3c21" tested on PI3K delta (Homo sapiens); recorded IC50 was 163 nM

For "CCNc1cc(-c2ccc3ncc4c(c3c2)n(-c2cn(CC)nc2C)c(=O)n4C)cnc1CO" on PI3K delta (Homo sapiens), measured IC50 was 22 nM

---
Case "CCNc1cc(-c2ccc3ncc4c(c3c2)n(-c2cn(C)nc2Cl)c(=O)n4C)cnc1OC" , PI3K delta (Homo sapiens), IC50 recorded as 31 nM

Item "Cc1nn(C)cc1-n1c(=O)n(C)c2cnc3ccc(-c4cncc(N(C)C)c4)cc3c21" was tested on PI3K delta (Homo sapiens); the reported IC50 is 85 nM

###

- TARGET_DESC: PI3K beta (Homo sapiens)
- Construct: for the full-length p110-b subunit are generated and fused by overlapping PCR; p85(iSH2) fusion partner (see partner chain) (N); His tag (C); Tn5 (Trichoplusia ni) or TiniPro insect cells
- Sequence (P42338 with tags, fused parts or gaps limits assumed): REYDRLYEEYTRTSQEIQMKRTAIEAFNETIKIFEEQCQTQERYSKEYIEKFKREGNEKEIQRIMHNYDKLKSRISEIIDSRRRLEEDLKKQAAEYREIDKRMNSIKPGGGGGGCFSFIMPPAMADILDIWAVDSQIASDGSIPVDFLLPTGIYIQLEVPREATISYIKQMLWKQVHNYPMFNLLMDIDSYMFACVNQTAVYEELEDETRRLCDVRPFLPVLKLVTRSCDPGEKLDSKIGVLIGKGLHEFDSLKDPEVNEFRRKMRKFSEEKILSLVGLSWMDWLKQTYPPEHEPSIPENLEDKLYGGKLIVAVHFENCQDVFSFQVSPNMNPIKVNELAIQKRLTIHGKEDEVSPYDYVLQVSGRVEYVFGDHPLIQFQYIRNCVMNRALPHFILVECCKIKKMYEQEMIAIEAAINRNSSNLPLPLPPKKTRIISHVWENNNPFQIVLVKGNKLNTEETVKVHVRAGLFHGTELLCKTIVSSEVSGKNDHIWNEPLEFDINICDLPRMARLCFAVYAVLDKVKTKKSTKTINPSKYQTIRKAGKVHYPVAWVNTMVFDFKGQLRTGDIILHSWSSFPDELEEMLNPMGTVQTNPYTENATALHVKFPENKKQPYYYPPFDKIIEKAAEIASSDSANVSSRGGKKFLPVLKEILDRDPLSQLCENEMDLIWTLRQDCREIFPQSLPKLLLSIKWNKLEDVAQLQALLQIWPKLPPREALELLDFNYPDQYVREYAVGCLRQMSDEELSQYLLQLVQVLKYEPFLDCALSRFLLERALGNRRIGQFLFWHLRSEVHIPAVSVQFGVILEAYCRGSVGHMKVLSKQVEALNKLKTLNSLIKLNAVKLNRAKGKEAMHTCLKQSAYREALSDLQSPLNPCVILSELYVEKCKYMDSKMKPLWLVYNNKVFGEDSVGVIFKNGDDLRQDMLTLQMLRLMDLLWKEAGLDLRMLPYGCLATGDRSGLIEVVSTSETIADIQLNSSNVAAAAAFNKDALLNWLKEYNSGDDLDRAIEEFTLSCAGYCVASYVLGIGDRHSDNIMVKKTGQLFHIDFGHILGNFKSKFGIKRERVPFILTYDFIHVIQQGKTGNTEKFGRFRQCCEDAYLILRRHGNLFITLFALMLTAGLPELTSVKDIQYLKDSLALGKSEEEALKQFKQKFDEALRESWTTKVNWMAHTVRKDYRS
- ASSAY: PI3K beta kinase assay (Kinase-Glo luminescence)
- Description: In a more preferred assay, the kinase reaction is performed in a final volume of 10 μL per well of a low volume non binding CORNING, 384 well black plate (Cat. No. #3676). The final concentrations of ATP and phosphatidyl inositol (PI) in the assay are 1 μM and 10 μg/mL respectively. […] IC50 is determined by a four parameter curve fitting routine that comes along with “excel fit”. […] Alternatively, IC50 values are calculated using idbsXLfit model 204, which is a 4 parameter logistic model.
IC50 reference
Expressed in µM, but write only the number.

Lab note: CCOc1ccc(-c2ccc3ncc4c(c3c2)n(-c2cn(C(C)C)nc2C)c(=O)n4C)cn1 [Example 3.7] gave IC50 of 0.537

The compound CCn1cc(-n2c(=O)n(C)c3cnc4ccc(-c5cncc(OC(C)C)c5)cc4c32)c(C)n1 [Example 58.4] showed IC50 equal to 0.029

The compound CCN(C)C(=O)Cn1cc(-n2c(=O)n(C)c3cnc4ccc(-c5cncc(OC(C)C)c5)cc4c32)c(C)n1 [Example 58.5] showed IC50 equal to 0.069

Reported IC50 of CCOc1ncc(-c2ccc3ncc4c(c3c2)n(-c2cn(C)nc2C)c(=O)n4C)cc1N(C)C(C)=O [Example 63] : 0.11

Noted for Cn1cc(-n2c(=O)n(C)c3cnc4ccc(-c5cnc(N)c(CO)c5)cc4c32)c(Cl)n1 [Example 169.3] : its IC50 reads 0.007

---
Sample CCOCc1cc(-c2ccc3ncc4c(c3c2)n(-c2cn(CC)nc2C)c(=O)n4C)cnc1N [Example 166.2] ; IC50 observed: 0.081

Record Cc1nn(C)cc1-n1c(=O)n(C)c2cnc3ccc(-c4cncc(OCCF)c4)cc3c21 [Example 181] . Reported IC50: 0.013

get_value(item= CNc1ncc(-c2ccc3ncc4c(c3c2)n(-c2c(C)nn(C)c2C)c(=O)n4C)cn1 [Example 80.2] , readout=IC50) returns 0.288

###

Some compounds, each annotated with its measured IC50.
- TARGET_DESC: PI3K delta (Homo sapiens)
- Construct: for the full-length p110-d subunit are generated and fused by overlapping PCR; p85(iSH2) fusion partner (see partner chain) (N); His tag (C); Tn5 (Trichoplusia ni) or TiniPro insect cells
- ASSAY: PI3K delta kinase assay (Kinase-Glo luminescence)
- Experimental: In a more preferred assay, the kinase reaction is performed in a final volume of 10 μL per well of a low volume non binding CORNING, 384 well black plate (Cat. No. #3676). The final concentrations of ATP and phosphatidyl inositol (PI) in the assay are 1 μM and 10 μg/mL respectively. […] IC50 is determined by a four parameter curve fitting routine that comes along with “excel fit”. […] Alternatively, IC50 values are calculated using idbsXLfit model 204, which is a 4 parameter logistic model.
Reply with just the number (in nM).

Entry "Cc1nn(C)cc1-n1c(=O)n(C)c2cnc3ccc(-c4ccc(CO)nc4)cc3c21" , IC50 reported as 18

Entry "CCN(C)c1ccc(-c2ccc3ncc4c(c3c2)n(-c2cn(C(C)C)nc2C)c(=O)n4C)cn1" — recorded IC50 = 101

# IC50 of "Cc1nn(C)cc1-n1c(=O)n(C)c2cnc3ccc(-c4cnc(N)c(F)c4)cc3c21" = 33

Query compound follows.
Looking up "CCOc1cc(-c2ccc3ncc4c(c3c2)n(-c2cn(C)nc2C)c(=O)n4C)ccn1" , I see its IC50 listed as 203

###

- TARGET_DESC: PI3K delta (Homo sapiens)
- Construct: for the full-length p110-d subunit are generated and fused by overlapping PCR; p85(iSH2) fusion partner (see partner chain) (N); His tag (C); Tn5 (Trichoplusia ni) or TiniPro insect cells
- ASSAY: PI3K delta kinase assay (Kinase-Glo luminescence)
pIC50: −log10 of the molar value.
Mark Not fulfilled for pIC50 values under 8, and Fulfilled for everything at or above.

Request: Threshold query (pIC50 >= 8) on "CCn1cc(-n2c(=O)n(C)c3cnc4ccc(-c5cnc(NC)c(COC)c5)cc4c32)c(C)n1"
Response: Fulfilled

Request: Reported pIC50 at or above 8? "CCn1cc(-n2c(=O)n(C)c3cnc4ccc(-c5cnc(COC)c(OC)c5)cc4c32)c(C)n1"
Response: Not fulfilled

Request: Decide: is the reported value of pIC50 for "CNC(=O)Cc1cncc(-c2ccc3ncc4c(c3c2)n(-c2cn(C)nc2C)c(=O)n4C)c1" equal to or greater than 8?
Response: Not fulfilled

Others:
Request: Check if pIC50 >= 8 (inclusive). Item: "Cc1nn(C)cc1-n1c(=O)n(C)c2cnc3ccc(-c4ccc(C(N)=O)cc4)cc3c21"
Response: Not fulfilled

Request: Could you please find out whether "COc1ccc(-c2ccc3ncc4[nH]c(=O)n(-c5cn(C)nc5C)c4c3c2)cc1OC" has pIC50 that meets 8 or exceeds it?
Response: Not fulfilled

Request: Quick check: does "CCOc1cc(-c2ccc3ncc4c(c3c2)n(-c2cn(C)nc2C)c(=O)n4C)cnc1C" have pIC50 greater than or equal to 8?
Response: Fulfilled

Request: Check the entry "Cc1nn(C)cc1-n1c(=O)n(C)c2cnc3ccc(-c4cncc(CNS(C)(=O)=O)c4)cc3c21" : does pIC50 equal or exceed 8?
Response: Not fulfilled

Request: Reported pIC50 reaches at least 8 for "CNc1ncc(-c2ccc3ncc4c(c3c2)n(-c2cc(C)nn2C)c(=O)n4C)cc1Cl" ?
Response: Fulfilled

Request: Hello, I need to know if "CNC(=O)c1ccc(-c2ccc3ncc4c(c3c2)n(-c2cn(C(C)C)nc2C)c(=O)n4C)cn1" has measured pIC50 not below 8. Thanks!
Response: Not fulfilled

Request: Determine whether this compound has pIC50 no lower than 8: "Cc1nn(C)cc1-n1c(=O)n(C)c2cnc3ccc(-c4cccc(C(N)=O)c4)cc3c21"
Response: Not fulfilled

Request: State whether the measured pIC50 reaches 8, counting equality as reaching it, for "CNS(=O)(=O)c1cccc(-c2ccc3ncc4c(c3c2)n(-c2cn(C)nc2C)c(=O)n4C)c1"
Response: Fulfilled

Request: Identify whether the reported pIC50 of the following compound is 8 or greater: "Cc1nn(C(C)C)cc1-n1c(=O)n(C)c2cnc3ccc(-c4ccc(N5CCC5)nc4)cc3c21"
Response: Not fulfilled

Request: Can "CCn1cc(-n2c(=O)n(C)c3cnc4ccc(-c5ccc(OC)c(OC)c5)nc4c32)c(C)n1" be said to have pIC50 at or above 8?
Response: Not fulfilled

Request: Please check the record "CCN(C)c1ccc(-c2ccc3ncc4c(c3c2)n(-c2cn(C)nc2C)c(=O)n4C)cn1" and state if its pIC50 is at or above 8.
Response: Not fulfilled

Request: Please indicate if the recorded pIC50 for "Cc1nn(C)c(C)c1-n1c(=O)n(C)c2cnc3ccc(-c4cnc(N)c(C(F)(F)F)c4)cc3c21" meets or exceeds 8.
Response: Not fulfilled

Request: Kindly determine if pIC50 recorded for "Cc1nn(C)cc1-n1c(=O)n(C)c2cnc3ccc(-c4ccc(N5CC[C@@H](O)C5)nc4)cc3c21" is above or exactly 8.
Response: Not fulfilled

Request: Reported pIC50 reaches at least 8 for "CCOc1ccc(-c2ccc3ncc4[nH]c(=O)n(-c5cn(C)nc5C)c4c3c2)cn1" ?
Response: Not fulfilled

Request: # check: pIC50 of "Cc1nn(C)cc1-n1c(=O)n(C)c2cnc3ccc(-c4ccc(N5CCNCC5)nc4)cc3c21" is greater than or equal to 8
Response: Not fulfilled

Request: Decide: is the reported value of pIC50 for "Cc1nn(C)c(C)c1-n1c(=O)n(C)c2cnc3ccc(-c4cccnc4)cc3c21" equal to or greater than 8?
Response: Not fulfilled

Request: Is it the case that "CCOc1ncc(-c2ccc3ncc4c(c3c2)n(-c2cn(C)nc2C)c(=O)n4C)cc1NC(C)=O" has pIC50 reaching or exceeding 8?
Response: Not fulfilled

Request: Textbook exercise: given the entry "COc1ncc(-c2ccc3ncc4c(c3c2)n(-c2cc(C)nn2C)c(=O)n4C)c(OC)n1" , state whether its pIC50 is greater than or equal to 8.
Response: Not fulfilled
